The reported measurements were obtained from ChEMBL document CHEMBL1201862.

system: MDA-MB-231; experiment: NCI tumour cell line growth inhibition, 48 h
The source made the active and inactive calls. Cut-off read from the data, not from the text of the source: active = GI50 up to about 1.1 µM and inactive = higher.

Molecule: CCOC(=O)/C(C(=S)Nc1ccccc1)=C(/N)N1CCCC1
Tested system: MDA-MB-231
GI50: 29.7 µM (inactive)
--
Molecule: C[n+]1c(-c2ccc(/C=N/Nc3ccnc(N/N=C/c4ccc(-c5cn6ccsc6[n+]5C)cc4)n3)cc2)cn2ccsc21
Tested system: MDA-MB-231
GI50: 32.7 µM (inactive)
--
Molecule: Cc1cccc(-c2cc(O)c3cccnc3n2)c1
Tested system: MDA-MB-231
GI50: 2.09 µM (inactive)
--
Molecule: Fc1cc(-c2ncc(Cl)cc2Cl)c2cccccc1-2
Tested system: MDA-MB-231
GI50: > 100 µM (inactive)
--
Molecule: CCOC(=O)NN(C(=O)OCC)C(C(=O)C1=CCCCC1)N(NC(=O)OCC)C(=O)OCC
Tested system: MDA-MB-231
GI50: > 100 µM (inactive)
--
Molecule: CCOC(=O)CSc1nc(-c2ccc(Cl)cc2)c(C#N)c(=O)[nH]1
Tested system: MDA-MB-231
GI50: 50.6 µM (inactive)
--
Molecule: COc1ccc2[nH]c(CCNC(=O)c3cc([N+](=O)[O-])cc([N+](=O)[O-])c3)cc2c1
Tested system: MDA-MB-231
GI50: 25.4 µM (inactive)
--
Molecule: [N-]=[N+]=NC1CC(n2ccc(N)nc2=O)OC1COP(=O)(O)OP(=O)(O)OP(=O)(O)O (stereo unspecified)
Tested system: MDA-MB-231
GI50: > 100 µM (inactive)
--
Molecule: Clc1ccc2c(c1)N(CCCN1CCCC13CCCCC3)c1ccccc1S2
Tested system: MDA-MB-231
GI50: 8.85 µM (inactive)
--
Molecule: c1ccc(Nc2nnc(Cn3ccc4ccccc43)s2)cc1
Tested system: MDA-MB-231
GI50: 38.3 µM (inactive)
--
Molecule: CC1(C)C2CCC1(C)[C@H](n1c(=O)n([C@@H]3CC4CCC3(C)C4(C)C)c(=O)n([C@@H]3CC4CCC3(C)C4(C)C)c1=O)C2
Tested system: MDA-MB-231
GI50: 45.5 µM (inactive)
--
Molecule: CCOC(=O)c1c(SCCN2CCCC2)n(-c2ccccc2)c(=S)n(-c2ccccc2)c1=O
Tested system: MDA-MB-231
GI50: 2.08 µM (inactive)
--
Molecule: CC1(c2sccc2Cl)CC(c2sccc2Cl)=C(C#N)C(=C(C#N)C#N)N1 (stereo unspecified)
Tested system: MDA-MB-231
GI50: 21.9 µM (inactive)
--
Molecule: COC(=O)C1(C(=O)OC)CC(=O)c2c(OC(=O)c3cccc(OC)c3C#N)ccc(OC(=O)c3cccc(OC)c3C#N)c2C1
Tested system: MDA-MB-231
GI50: > 100 µM (inactive)
--
Molecule: Cc1cnc2sn(-c3ccc([N+](=O)[O-])cc3)c(=O)c2c1
Tested system: MDA-MB-231
GI50: 82.2 µM (inactive)
--
Molecule: O=C1c2c(F)c(F)c(F)c(F)c2SC2=NCCN12
Tested system: MDA-MB-231
GI50: 8.75 µM (inactive)
--
Molecule: COc1ccc(N2C(=O)C3c4[nH]c5ccc(OCc6ccccc6)cc5c4C4CCC(c5ccccc5)CC4C3C2=O)cc1 (stereo unspecified)
Tested system: MDA-MB-231
GI50: 6.35 µM (inactive)
--
Molecule: OC1(c2cc3ccccc3s2)CCCCC1
Tested system: MDA-MB-231
GI50: 30.8 µM (inactive)
--
Molecule: Cc1ccc(Cl)c2c(=O)c3ccc(N)cc3sc12
Tested system: MDA-MB-231
GI50: 22.2 µM (inactive)
--
Molecule: Cc1nn(-c2ccccc2)c2nc3c(c(C)nn3-c3ccccc3)c(-c3ccccc3Br)c12
Tested system: MDA-MB-231
GI50: > 100 µM (inactive)
--
Molecule: COC(=O)CCc1ccc2c(c1)CC1(C2)Cc2ccc3c(c2C1)CCC3 (stereo unspecified)
Tested system: MDA-MB-231
GI50: 89.1 µM (inactive)
